Assay: The drug is tested on Z-009 corresponding to pig gut metagenome with ENA study accession number: PRJEB37062 and ENA sample accession number: ERS12561809 for biotransformation under anaerobic condition. The drug concentrations were measured over 9 timepoints collected between 0 and 24 hours of incubation by liquid-chromatography-coupled mass spectrometry (LC–MS); further: call rule not given here
Conditions: 2 µM
quantity-kind: Bacterial Biotransformation

molecule: CCCCc1nc(Cl)c(CO)n1Cc1ccc(-c2ccccc2-c2nn[nH]n2)cc1 [LOSARTAN]
quantity-kind: Bacterial Biotransformation
reported-result: Compound NOT metabolized
--
molecule: CCC(=O)NCC[C@@H]1CCc2ccc3c(c21)CCO3 [RAMELTEON]
quantity-kind: Bacterial Biotransformation
reported-result: Compound metabolized
--
molecule: O=c1[nH]c2ccccc2n1CCCN1CCC(n2c(=O)[nH]c3cc(Cl)ccc32)CC1 [DOMPERIDONE]
quantity-kind: Bacterial Biotransformation
reported-result: Compound NOT metabolized
--
molecule: O=C1NCC2(CCN(CCc3ccccc3)CC2)O1 [FENSPIRIDE]
quantity-kind: Bacterial Biotransformation
reported-result: Compound NOT metabolized
--
molecule: CC(C)(C(=O)O)c1ccc(C(O)CCCN2CCC(C(O)(c3ccccc3)c3ccccc3)CC2)cc1 (configuration not stated) [FEXOFENADINE]
quantity-kind: Bacterial Biotransformation
reported-result: Compound NOT metabolized
--
molecule: CN1C(=O)CC(C)(c2ccccc2)C1=O (configuration not stated) [METHSUXIMIDE]
quantity-kind: Bacterial Biotransformation
reported-result: Compound NOT metabolized
--
molecule: CCN(CC)C(C)CN1c2ccccc2Sc2ccccc21 (configuration not stated) [ETHOPROPAZINE]
quantity-kind: Bacterial Biotransformation
reported-result: Compound metabolized
--
molecule: CC(O)(CS(=O)(=O)c1ccc(F)cc1)C(=O)Nc1ccc(C#N)c(C(F)(F)F)c1 (configuration not stated) [BICALUTAMIDE]
quantity-kind: Bacterial Biotransformation
reported-result: Compound NOT metabolized
--
molecule: O=P(O)(O)O.c1ccc(CN(CC2=NCCN2)c2ccccc2)cc1 [ANTAZOLINE PHOSPHATE]
quantity-kind: Bacterial Biotransformation
reported-result: Compound NOT metabolized
--
molecule: Cc1ccc(-c2cc(C(F)(F)F)nn2-c2ccc(S(N)(=O)=O)cc2)cc1 [CELECOXIB]
quantity-kind: Bacterial Biotransformation
reported-result: Compound NOT metabolized
--
molecule: Cc1ccc(-c2nc3ccc(C)cn3c2CC(=O)N(C)C)cc1 [ZOLPIDEM]
quantity-kind: Bacterial Biotransformation
reported-result: Compound metabolized
--
molecule: CC(=O)OCC(=O)[C@@]12N=C(C)O[C@@H]1C[C@H]1[C@@H]3CCC4=CC(=O)C=C[C@]4(C)[C@H]3[C@@H](O)C[C@@]12C [DEFLAZACORT]
quantity-kind: Bacterial Biotransformation
reported-result: Compound metabolized
--
molecule: CC(C)(C)NC[C@H](O)COc1ccccc1C1CCCC1.CC(C)(C)NC[C@H](O)COc1ccccc1C1CCCC1.O=S(=O)(O)O [PENBUTOLOL SULFATE]
quantity-kind: Bacterial Biotransformation
reported-result: Compound metabolized
--
molecule: Cc1ccnc2c1NC(=O)c1cccnc1N2C1CC1 [NEVIRAPINE]
quantity-kind: Bacterial Biotransformation
reported-result: Compound NOT metabolized
--
molecule: CCCCCOC(=O)Nc1nc(=O)n([C@@H]2O[C@H](C)[C@@H](O)[C@H]2O)cc1F [CAPECITABINE]
quantity-kind: Bacterial Biotransformation
reported-result: Compound metabolized
--
molecule: CCOC(=O)[C@H](CCc1ccccc1)N[C@H]1CCc2ccccc2N(CC(=O)O)C1=O [BENAZEPRIL]
quantity-kind: Bacterial Biotransformation
reported-result: Compound metabolized
--
molecule: COc1ccccc1OCC(O)COC(N)=O (configuration not stated) [METHOCARBAMOL]
quantity-kind: Bacterial Biotransformation
reported-result: Compound NOT metabolized

* * *

Experiment: The drug is tested on WLS-240 corresponding to human gut metagenome with ENA study accession number: PRJEB37062 and ENA sample accession number: ERS12561773 for biotransformation under anaerobic condition. The drug concentrations were measured over 9 timepoints collected between 0 and 24 hours of incubation by liquid-chromatography-coupled mass spectrometry (LC–MS)
Settings: 2 µM

compound: CCN1CCCC1CNC(=O)c1cc(S(N)(=O)=O)ccc1OC (stereo not given) [SULPIRIDE]
Bacterial Biotransformation: Compound metabolized
--
compound: O=C(Nc1ccccc1)OCC(CN1CCCCC1)OC(=O)Nc1ccccc1 (stereo not given)
Bacterial Biotransformation: Compound metabolized
--
compound: CN1C(C(=O)Nc2ccccn2)=C(O)c2sccc2S1(=O)=O
Bacterial Biotransformation: Compound NOT metabolized
--
compound: COC(=O)Nc1nc2ccc(C(=O)c3ccccc3)cc2[nH]1
Bacterial Biotransformation: Compound metabolized
--
compound: CN(C)CCC=C1c2ccccc2C=Cc2ccccc21
Bacterial Biotransformation: Compound metabolized
--
compound: Br.CN(C)CCCC1(c2ccc(F)cc2)OCc2cc(C#N)ccc21 (stereo not given) [CITALOPRAM HYDROBROMIDE]
Bacterial Biotransformation: Compound metabolized
--
compound: COC1=CC(=O)C[C@@H](C)[C@]12Oc1c(Cl)c(OC)cc(OC)c1C2=O
Bacterial Biotransformation: Compound metabolized
--
compound: Cc1ccc(S(=O)(=O)NC(=O)NN2CCCCCC2)cc1 [TOLAZAMIDE]
Bacterial Biotransformation: Compound metabolized
--
compound: CCc1nc(N)nc(N)c1-c1ccc(Cl)cc1
Bacterial Biotransformation: Compound metabolized
--
compound: C[C@@H](CO)NC(=O)[C@@H]1C=C2c3cccc4[nH]cc(c34)C[C@H]2N(C)C1.O=C(O)/C=C\C(=O)O [ERGONOVINE MALEATE]
Bacterial Biotransformation: Compound metabolized
--
compound: Nc1nc2ccc(OC(F)(F)F)cc2s1
Bacterial Biotransformation: Compound metabolized
--
compound: CC(CN(C)C)CN1c2ccccc2CCc2ccccc21.O=C(O)/C=C\C(=O)O (stereo not given) [TRIMIPRAMINE MALEATE]
Bacterial Biotransformation: Compound metabolized
--
compound: CN1CCc2cccc3c2[C@H]1Cc1ccc(O)c(O)c1-3
Bacterial Biotransformation: Compound NOT metabolized
--
compound: O=C(O)CCc1nc(-c2ccccc2)c(-c2ccccc2)o1
Bacterial Biotransformation: Compound metabolized
--
compound: OC(CCN1CCCCC1)(c1ccccc1)C1CCCCC1 (stereo not given)
Bacterial Biotransformation: Compound metabolized
--
compound: CC(C)NCC(O)COc1ccc(CCOCC2CC2)cc1 (stereo not given)
Bacterial Biotransformation: Compound metabolized
--
compound: CCN(CC)CCOCCOC(=O)C1(c2ccccc2)CCCC1.O=C(O)CC(O)(CC(=O)O)C(=O)O [CARBETAPENTANE CITRATE]
Bacterial Biotransformation: Compound metabolized
--
compound: N#Cc1ccc(C(c2ccc(C#N)cc2)n2cncn2)cc1
Bacterial Biotransformation: Compound NOT metabolized
--
compound: COC(=O)[C@H]1[C@H]2C[C@@H]3c4[nH]c5cc(OC)ccc5c4CCN3C[C@H]2C[C@@H](OC(=O)c2cc(OC)c(OC)c(OC)c2)[C@@H]1OC
Bacterial Biotransformation: Compound NOT metabolized
--
compound: Cc1nc2n(c(=O)c1CCN1CCC(c3noc4cc(F)ccc34)CC1)CCCC2O (stereo not given)
Bacterial Biotransformation: Compound metabolized
--
compound: CCCCC1=NC2(CCCC2)C(=O)N1Cc1ccc(-c2ccccc2-c2nnn[nH]2)cc1
Bacterial Biotransformation: Compound metabolized
--
compound: OCCN1CCN(CCCN2c3ccccc3Sc3ccc(C(F)(F)F)cc32)CC1
Bacterial Biotransformation: Compound metabolized
--
compound: CC(=O)O[C@]1(C(C)=O)CC[C@H]2[C@@H]3C=C(Cl)C4=CC(=O)[C@@H]5C[C@@H]5[C@]4(C)[C@H]3CC[C@@]21C [CYPROTERONE ACETATE]
Bacterial Biotransformation: Compound metabolized
--
compound: COc1c2occc2cc2ccc(=O)oc12
Bacterial Biotransformation: Compound metabolized
--
compound: CCCCCOC(=O)Nc1nc(=O)n([C@@H]2O[C@H](C)[C@@H](O)[C@H]2O)cc1F
Bacterial Biotransformation: Compound metabolized
--
compound: CCN(CC)CC#CCOC(=O)C(O)(c1ccccc1)C1CCCCC1.Cl (stereo not given) [OXYBUTYNIN CHLORIDE]
Bacterial Biotransformation: Compound metabolized
--
compound: CC(C)OC(=O)C(C)(C)Oc1ccc(C(=O)c2ccc(Cl)cc2)cc1 [FENOFIBRATE]
Bacterial Biotransformation: Compound NOT metabolized
--
compound: CCCC1O[C@@H]2C[C@H]3[C@@H]4CCC5=CC(=O)C=C[C@]5(C)[C@H]4[C@@H](O)C[C@]3(C)[C@]2(C(=O)CO)O1 (stereo not given in full) [BUDESONIDE]
Bacterial Biotransformation: Compound metabolized
--
compound: Cc1ccc(/C(=C\CN2CCCC2)c2ccccn2)cc1
Bacterial Biotransformation: Compound NOT metabolized
--
compound: NC(CO)(CO)CO.O=C(c1ccccc1)c1ccc2n1CCC2C(=O)O (stereo not given)
Bacterial Biotransformation: Compound metabolized
--
compound: COc1cc2nc(N(C)CCCNC(=O)C3CCCO3)nc(N)c2cc1OC (stereo not given)
Bacterial Biotransformation: Compound metabolized
--
compound: CC(CN1c2ccccc2Sc2ccccc21)N(C)C (stereo not given)
Bacterial Biotransformation: Compound metabolized
--
compound: NC(=O)N1c2ccccc2CC(=O)c2ccccc21 [OXCARBAZEPINE]
Bacterial Biotransformation: Compound NOT metabolized
--
compound: NC12CC3CC(CC(C3)C1)C2
Bacterial Biotransformation: Compound NOT metabolized
--
compound: COc1ccc2c(c1OC)C(=O)O[C@@H]2[C@H]1c2c(cc3c(c2OC)OCO3)CCN1C
Bacterial Biotransformation: Compound metabolized

The reported measurements were obtained from ChEMBL document CHEMBL5724914.
